# subjectOfTest: human serum albumin (HSA) (Homo sapiens, UniProt P02768)
# Sequence (P02768 25-609): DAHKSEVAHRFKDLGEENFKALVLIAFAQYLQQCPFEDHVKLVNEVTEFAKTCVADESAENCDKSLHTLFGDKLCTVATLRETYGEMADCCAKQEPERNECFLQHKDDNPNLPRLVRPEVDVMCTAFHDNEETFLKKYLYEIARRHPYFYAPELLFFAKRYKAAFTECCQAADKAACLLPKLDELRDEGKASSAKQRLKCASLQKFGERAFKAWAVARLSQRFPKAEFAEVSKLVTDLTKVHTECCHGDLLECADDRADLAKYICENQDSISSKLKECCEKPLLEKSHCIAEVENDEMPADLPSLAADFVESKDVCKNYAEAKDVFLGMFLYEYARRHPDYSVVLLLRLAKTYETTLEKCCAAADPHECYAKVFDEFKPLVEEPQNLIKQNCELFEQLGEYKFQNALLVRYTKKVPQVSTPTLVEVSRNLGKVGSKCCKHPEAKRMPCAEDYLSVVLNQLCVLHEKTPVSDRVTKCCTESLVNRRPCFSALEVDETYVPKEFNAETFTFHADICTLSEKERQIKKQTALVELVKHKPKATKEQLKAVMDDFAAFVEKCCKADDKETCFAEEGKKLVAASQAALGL
# protocolNotes: HSA fluorescence quenching (Stern-Volmer)
# Assay type: binding
# experimentalContext: HSA, Hepes pH 7.4
Item-by-item account of bimolecular quenching constant Kq

[
  {
    "compound": "CC(C)n1c2c(sc1=S)[Se][Au-]1([Se]c3sc(=S)n(C(C)C)c3[Se]1)[Se]2.c1ccc([P+](c2ccccc2)(c2ccccc2)c2ccccc2)cc1 [[P][AuSeiPr(=S)]]",
    "bimolecular quenching constant Kq": "3.63 ± 0.01 x 1013 L mol-1 s-1"
  },
  {
    "compound": "CCn1c2c(sc1=[Se])[S][Au-]1([S]c3sc(=[Se])n(CC)c3[S]1)[S]2.c1ccc([P+](c2ccccc2)(c2ccccc2)c2ccccc2)cc1 [[P][AuSEt(=Se)]]",
    "bimolecular quenching constant Kq": "5.00 ± 0.17 x 1013 L mol-1 s-1"
  },
  {
    "compound": "CCCCn1c2c(sc1=S)[S][Au-]1([S]c3sc(=S)n(CCCC)c3[S]1)[S]2.c1ccc([P+](c2ccccc2)(c2ccccc2)c2ccccc2)cc1 [[P][AuSBu(=S)]]",
    "bimolecular quenching constant Kq": "14.9 ± 0.05 x 1013 L mol-1 s-1"
  },
  {
    "compound": "CCn1c2c(sc1=S)[S][Au-]1([S]c3sc(=S)n(CC)c3[S]1)[S]2.c1ccc([P+](c2ccccc2)(c2ccccc2)c2ccccc2)cc1 [[P][AuSEt(=S)]]",
    "bimolecular quenching constant Kq": "6.48 ± 0.06 x 1013 L mol-1 s-1"
  }
]
